Let's look at some compounds and their measured inhibition in vivo at 100 mg/kg.
- System: Rattus norvegicus
- ASSAY PROCEDURE: Antiinflammatory activity in Norwegian albino rat assessed as inhibition of carrageenan-induced paw edema at 100 mg/kg, po after administered 60 mins prior to carrageenan-challenge measured after 3 hrs
- Type: functional
MEASUREMENT LABEL: inhibition in vivo at 100 mg/kg

{"columns": ["COMPOUND", "DATA VALUE"],
 "data": [
  ["CCOC(=O)C1=C(C)NC(OC)N(CC(=O)c2ccccc2)C1c1ccc(O)cc1 (stereo unspecified)", "40.9%"],
  ["CCOC(=O)C1=C(C)NC(OC)N(CC(=O)c2ccc(OC)cc2)C1c1ccc(O)cc1 (stereo unspecified)", "38.2%"],
  ["CCOC(=O)C1=C(C)NC(OC)N(CC(=O)c2ccc(Cl)cc2)C1c1ccc(C)cc1 (stereo unspecified)", "38.8%"],
  ["CCOC(=O)C1=C(C)NC(OC)N(CC(=O)c2ccc(Cl)cc2)C1c1ccccc1 (stereo unspecified)", "38.4%"],
  ["CCOC(=O)C1=C(C)NC(OC)N(CC(=O)c2ccc(Cl)cc2)C1c1ccc(Cl)cc1 (stereo unspecified)", "41%"],
  ["CCOC(=O)C1=C(C)NC(OC)N(CC(=O)c2ccc(Cl)cc2)C1c1ccc(O)cc1 (stereo unspecified)", "38.8%"]
]}

====

Let's look at some compounds and their measured Activity.
- System: Mus musculus
- ASSAY PROCEDURE: Analgesic activity against acetic acid-induced writhing in Swiss albino mouse assessed as protection at 20 mg/kg, po
- Format: functional
MEASUREMENT LABEL: Activity

{"columns": ["COMPOUND", "MEASUREMENT LABEL", "DATA VALUE"],
 "data": [
  ["CC(C)Cc1ccc(C(C)C(=O)O)cc1 (stereo not given)", "Activity", "62.55%"],
  ["CCOC(=O)C1=C(C)NC(OC)N(CC(=O)c2ccc(OC)cc2)C1c1ccc(OC)cc1 (stereo not given)", "Activity", "51.33%"],
  ["CCOC(=O)C1=C(C)NC(OC)N(CC(=O)c2ccc(Cl)cc2)C1c1ccc(C)cc1 (stereo not given)", "Activity", "53.17%"],
  ["CCOC(=O)C1=C(C)NC(OC)N(CC(=O)c2ccccc2)C1c1ccccc1 (stereo not given)", "Activity", "40.14%"],
  ["CCOC(=O)C1=C(C)NC(OC)N(CC(=O)c2ccc(OC)cc2)C1c1ccc(C)cc1 (stereo not given)", "Activity", "43.33%"],
  ["CCOC(=O)C1=C(C)NC(OC)N(CC(=O)c2ccccc2)C1c1ccc(Cl)cc1 (stereo not given)", "Activity", "37.87%"],
  ["CCOC(=O)C1=C(C)NC(OC)N(CC(=O)c2ccc(OC)cc2)C1c1ccccc1 (stereo not given)", "Activity", "45.8%"],
  ["CCOC(=O)C1=C(C)NC(OC)N(CC(=O)c2ccccc2)C1c1ccc(OC)cc1 (stereo not given)", "Activity", "59.76%"],
  ["CCOC(=O)C1=C(C)NC(OC)N(CC(=O)c2ccc(Cl)cc2)C1c1ccccc1 (stereo not given)", "Activity", "41.66%"],
  ["CCOC(=O)C1=C(C)NC(OC)N(CC(=O)c2ccc(Cl)cc2)C1c1ccc(OC)cc1 (stereo not given)", "Activity", "49.56%"]
]}

====

Let's look at some compounds and their measured inhibition in vivo at 10 mg/kg.
- System: Rattus norvegicus
- ASSAY PROCEDURE: Antihypertensive activity in Norwegian albino rat assessed as inhibition of DOCA salt-induced systolic blood pressure at 10 mg/kg, po after 240 mins by non-invasive tail-cuff method
- Format: functional
- CONDITION DESCRIPTION: Artery, 4 h

{"columns": ["COMPOUND", "inhibition in vivo at 10 mg/kg / %"],
 "data": [
  ["CCOC(=O)C1=C(C)NC(OC)N(CC(=O)c2ccc(Cl)cc2)C1c1ccc(O)cc1 (stereo not given)", 36.7],
  ["CCOC(=O)C1=C(C)NC(OC)N(CC(=O)c2ccc(Cl)cc2)C1c1ccc(C)cc1 (stereo not given)", 36.8],
  ["CCOC(=O)C1=C(C)NC(OC)N(CC(=O)c2ccccc2)C1c1ccc(O)cc1 (stereo not given)", 27.8],
  ["CCOC(=O)C1=C(C)NC(OC)N(CC(=O)c2ccc(Cl)cc2)C1c1ccc(Cl)cc1 (stereo not given)", 35.5],
  ["CCOC(=O)C1=C(C)NC(OC)N(CC(=O)c2ccc(Cl)cc2)C1c1ccc(OC)cc1 (stereo not given)", 36],
  ["CCOC(=O)C1=C(C)NC(OC)N(CC(=O)c2ccccc2)C1c1ccc(Cl)cc1 (stereo not given)", 25.6],
  ["CCOC(=O)C1=C(C)NC(OC)N(CC(=O)c2ccc(OC)cc2)C1c1ccc(O)cc1 (stereo not given)", 23.3],
  ["CCOC(=O)C1=C(C)NC(OC)N(CC(=O)c2ccc(Cl)cc2)C1c1ccccc1 (stereo not given)", 36.7],
  ["CCOC(=O)C1=C(C)NC(OC)N(CC(=O)c2ccccc2)C1c1ccccc1 (stereo not given)", 23.3],
  ["CCOC(=O)C1=C(C)NC(OC)N(CC(=O)c2ccc(OC)cc2)C1c1ccc(OC)cc1 (stereo not given)", 36],
  ["CCOC(=O)C1=C(C)NC(OC)N(CC(=O)c2ccccc2)C1c1ccc(C)cc1 (stereo not given)", 36.8],
  ["COC(=O)C1=C(C)NC(C)=C(C(=O)OC)C1c1ccccc1[N+](=O)[O-]", 35.5],
  ["CCOC(=O)C1=C(C)NC(OC)N(CC(=O)c2ccc(OC)cc2)C1c1ccc(C)cc1 (stereo not given)", 36.9],
  ["CCOC(=O)C1=C(C)NC(OC)N(CC(=O)c2ccccc2)C1c1ccc(OC)cc1 (stereo not given)", 36],
  ["CCOC(=O)C1=C(C)NC(OC)N(CC(=O)c2ccc(OC)cc2)C1c1ccccc1 (stereo not given)", 36.8]
]}

====

Let's look at some compounds and their measured inhibition in vivo at 100 mg/kg.
- System: Rattus norvegicus
- ASSAY PROCEDURE: Antiinflammatory activity in Norwegian albino rat assessed as inhibition of carrageenan-induced paw edema at 100 mg/kg, po after administered 60 mins prior to carrageenan-challenge measured after 5 hrs
- Format: functional
MEASUREMENT LABEL: inhibition in vivo at 100 mg/kg (%)

{"columns": ["COMPOUND", "MEASURED TARGET", "DATA VALUE"],
 "data": [
  ["CCOC(=O)C1=C(C)NC(OC)N(CC(=O)c2ccc(Cl)cc2)C1c1ccc(O)cc1 (stereo not given)", "Rattus norvegicus", 42],
  ["CCOC(=O)C1=C(C)NC(OC)N(CC(=O)c2ccccc2)C1c1ccc(C)cc1 (stereo not given)", "Rattus norvegicus", 38.9],
  ["CCOC(=O)C1=C(C)NC(OC)N(CC(=O)c2ccccc2)C1c1ccc(O)cc1 (stereo not given)", "Rattus norvegicus", 42],
  ["CCOC(=O)C1=C(C)NC(OC)N(CC(=O)c2ccc(Cl)cc2)C1c1ccccc1 (stereo not given)", "Rattus norvegicus", 42],
  ["CCOC(=O)C1=C(C)NC(OC)N(CC(=O)c2ccc(OC)cc2)C1c1ccc(OC)cc1 (stereo not given)", "Rattus norvegicus", 47.2],
  ["COc1ccc2c(c1)c(CC(=O)O)c(C)n2C(=O)c1ccc(Cl)cc1", "Rattus norvegicus", 52.6],
  ["CCOC(=O)C1=C(C)NC(OC)N(CC(=O)c2ccc(Cl)cc2)C1c1ccc(Cl)cc1 (stereo not given)", "Rattus norvegicus", 42],
  ["CCOC(=O)C1=C(C)NC(OC)N(CC(=O)c2ccc(Cl)cc2)C1c1ccc(OC)cc1 (stereo not given)", "Rattus norvegicus", 42],
  ["CCOC(=O)C1=C(C)NC(OC)N(CC(=O)c2ccccc2)C1c1ccc(OC)cc1 (stereo not given)", "Rattus norvegicus", 52.6],
  ["CCOC(=O)C1=C(C)NC(OC)N(CC(=O)c2ccccc2)C1c1ccc(Cl)cc1 (stereo not given)", "Rattus norvegicus", 42],
  ["CCOC(=O)C1=C(C)NC(OC)N(CC(=O)c2ccc(OC)cc2)C1c1ccc(O)cc1 (stereo not given)", "Rattus norvegicus", 39.9],
  ["CCOC(=O)C1=C(C)NC(OC)N(CC(=O)c2ccc(Cl)cc2)C1c1ccc(C)cc1 (stereo not given)", "Rattus norvegicus", 47.3],
  ["CCOC(=O)C1=C(C)NC(OC)N(CC(=O)c2ccc(OC)cc2)C1c1ccc(C)cc1 (stereo not given)", "Rattus norvegicus", 42],
  ["CCOC(=O)C1=C(C)NC(OC)N(CC(=O)c2ccccc2)C1c1ccccc1 (stereo not given)", "Rattus norvegicus", 42],
  ["CCOC(=O)C1=C(C)NC(OC)N(CC(=O)c2ccc(OC)cc2)C1c1ccccc1 (stereo not given)", "Rattus norvegicus", 42.6]
]}

====

Let's look at some compounds and their measured Activity.
- System: Mus musculus
- ASSAY PROCEDURE: Analgesic activity against acetic acid-induced writhing in Swiss albino mouse assessed as protection at 20 mg/kg, po
- Format: functional

{"columns": ["COMPOUND", "Activity [%]"],
 "data": [
  ["CCOC(=O)C1=C(C)NC(OC)N(CC(=O)c2ccc(Cl)cc2)C1c1ccc(Cl)cc1 (stereo not drawn)", 37.33],
  ["CCOC(=O)C1=C(C)NC(OC)N(CC(=O)c2ccc(Cl)cc2)C1c1ccc(O)cc1 (stereo not drawn)", 45.66],
  ["CCOC(=O)C1=C(C)NC(OC)N(CC(=O)c2ccccc2)C1c1ccc(O)cc1 (stereo not drawn)", 40.33]
]}
